System: monkey kidney epithelial cells of the BSC-1 line
method-summary: Growth-promoting (mitogenic) activity: number of cells in BSC-1 cultures counted four days after addition
Format: cell-based, African green monkey
experimental-context: + heparin (1 μg/ml); read-out: Growth-Stimulation K½
pEC50: −log10 of the molar value.
# maps each entry to its pEC50

[
  {
    "residue-sequence": "AQPYPQGNHEASYG",
    "target-or-test-system": "monkey kidney epithelial cells of the BSC-1 line",
    "pEC50": 7.40
  },
  {
    "residue-sequence": "YPQGNHEASYG",
    "target-or-test-system": "monkey kidney epithelial cells of the BSC-1 line",
    "pEC50": 6.78
  }
]

* * *

Test system: monkey kidney epithelial cells of the BSC-1 line
method-summary: Growth-promoting (mitogenic) activity: number of cells in BSC-1 cultures counted four days after addition
Assay type: cell-based, African green monkey
experimental-context: peptide alone; BSC-1 cells, 4 days in culture; read-out: Growth-Stimulation K½
experimental-endpoint: EC50 (nM)

[
  {
    "substance": "YPEGNH",
    "scale-unit": "nM",
    "endpoint-value": 301
  },
  {
    "substance": "YPQGNH [YPQGNH-amide]",
    "scale-unit": "nM",
    "endpoint-value": 8850
  },
  {
    "substance": "AQPYPQGNHEA",
    "scale-unit": "nM",
    "endpoint-value": 260
  },
  {
    "substance": "YPQGNHEASYG",
    "scale-unit": "nM",
    "endpoint-value": 166
  },
  {
    "substance": "FPEGNH",
    "scale-unit": "nM",
    "endpoint-value": 2720
  },
  {
    "substance": "YPEGKH",
    "scale-unit": "nM",
    "endpoint-value": 14100
  },
  {
    "substance": "YPEGDH",
    "scale-unit": "nM",
    "endpoint-value": 11000
  },
  {
    "substance": "AQPYPQGNHEASYG",
    "scale-unit": "nM",
    "endpoint-value": 126
  },
  {
    "substance": "AQPYPQGNHEAAYG",
    "scale-unit": "nM",
    "endpoint-value": 199
  },
  {
    "substance": "AQPYPQGNHEATSSSF",
    "scale-unit": "nM",
    "endpoint-value": 218
  },
  {
    "substance": "AQPYPEGNHEASYG",
    "scale-unit": "nM",
    "endpoint-value": 128
  },
  {
    "substance": "AQPYPQGNHEAQPYPQGNHEAQPYPQGNHEAQPYPQGNHE",
    "scale-unit": "nM",
    "endpoint-value": 7
  },
  {
    "substance": "AQPYPEGNHEA",
    "scale-unit": "nM",
    "endpoint-value": 206
  }
]

This collection of values is drawn from patent US7550438B2.
